Source: a melting point compilation (Tetko et al.; mined from patent text by program, amines drawn as free bases though some values may be those of a salt)

QUANTITY_MEASURED: melting point

Request: Reported melting point, compound CCC(=O)NCc1ccc(CN2CCN(c3ncccn3)CC2)cc1 : ____
Result: 103 to 105 °C

Request: Reported melting point, compound CN1CS(=O)c2cccc(Cl)c21 (stereo unspecified) : ____
Result: 130 to 132 °C

Request: Reported melting point, compound CCNC(=S)NCCSCc1[nH]cnc1C : ____
Result: 140 to 141 °C

More entries:
Request: Reported melting point, compound Cc1cc(=O)[nH]c2ccc(C(O)(C(F)(F)F)C(F)(F)F)cc12 : ____
Result: 157 to 158 °C

Request: Reported melting point, compound COC1=C(OC)CC(C)(CNCCCCc2ccc(NC(=O)c3cccc4c(=O)c5cc(F)ccc5sc34)cc2)C=C1 (stereo unspecified) : ____
Result: 168 °C

Request: Reported melting point, compound CCCn1c(=O)c2[nH]c(/C=C/c3cccs3)nc2n(CCC)c1=O : ____
Result: 270 °C

---

Measured melting point, listed per entry.

// known answers, use as guide
Request: Reported melting point, compound CCCCCC(=O)NC(C)(C)C(=O)O : ____
Result: 141 to 143 °C

Request: Reported melting point, compound O=C(O)c1ccc(CC2(C(=O)O)CCCN2C(=O)Nc2cc(Cl)cc(Cl)c2)cc1 (centres undefined) : ____
Result: 145 °C

Request: Reported melting point, compound CCCCOc1nc(N)c2[nH]c(=O)n(CCCNc3cccc(CC(=O)O)c3)c2n1 : ____
Result: 247 °C

Request: Reported melting point, compound CCN(CC)CCOc1ccc(Nc2ncc3c(n2)N(C)C(=O)N(C2CCCCC2)C3)cc1 : ____
Result: 90 to 92 °C

Request: Reported melting point, compound COC(=O)C(NS(=O)(=O)c1ccc(-c2ccc(NC(=O)c3oc4cccc(C(C)=O)c4c3C)cc2)cc1)C(C)C (centres undefined) : ____
Result: 197 to 199 °C

More entries:
Request: Reported melting point, compound CC(=O)SCCC(=O)N1CCC=C1C(=O)OC(C)(C)C : ____
Result: 59 to 62 °C

Request: Reported melting point, compound Cc1c(NC(=O)c2ccc(OC[C@@H]3CCCO3)cc2)ccc2cc(CNC3CCC3)cnc12 : ____
Result: 142 to 144 °C

Request: Reported melting point, compound O=C(CCc1ccccc1)Nc1cc(-c2nnc(SCc3cccc(C(F)(F)F)c3)o2)ccn1 : ____
Result: 159 to 160 °C

Request: Reported melting point, compound C=CCC(Oc1cccc(C)c1C)C1=NCCN1 (centres undefined) : ____
Result: 72 to 74 °C

Request: Reported melting point, compound O=C(NS(=O)(=O)NCC1CCCO1)OCc1ccccc1 (centres undefined) : ____
Result: 96 to 97 °C

Request: Reported melting point, compound CNC(=O)n1nc(Oc2c(Cl)cc(C(F)(F)F)cc2Cl)c(Cl)c1C : ____
Result: 125 to 127 °C

---

Measured melting point, listed per entry.

// known answers, use as guide
Request: Reported melting point, compound CCCCNC(=O)c1ccc(S(=O)(=O)NC(=O)c2ccc(C(=O)NCC(=O)OC)nc2)cc1 : ____
Result: 215 to 217 °C

Request: Reported melting point, compound CNC(=O)ON=C1COCCS1 : ____
Result: 105 to 106 °C

Request: Reported melting point, compound O=c1c(O)c(-c2ncn(Cc3ccc(F)cc3)n2)oc2ccccc12 : ____
Result: 260 to 262 °C

More entries:
Request: Reported melting point, compound COc1ccc([N+](=O)[O-])cc1CBr : ____
Result: 78 °C

Request: Reported melting point, compound Cc1cc2nc(NC3=NCCN3)[nH]c2cc1C : ____
Result: 266 °C

Request: Reported melting point, compound O=C1N(Cc2ccccn2)c2c(F)cccc2C12COc1cc3c(cc12)OCCO3 (stereo unspecified) : ____
Result: 205 to 207 °C
